Record form. Attribute: IC50. Fill in for each entry.
# target-or-test-system: FLT3 (Homo sapiens (Human))
# Sequence (P36888 27-993): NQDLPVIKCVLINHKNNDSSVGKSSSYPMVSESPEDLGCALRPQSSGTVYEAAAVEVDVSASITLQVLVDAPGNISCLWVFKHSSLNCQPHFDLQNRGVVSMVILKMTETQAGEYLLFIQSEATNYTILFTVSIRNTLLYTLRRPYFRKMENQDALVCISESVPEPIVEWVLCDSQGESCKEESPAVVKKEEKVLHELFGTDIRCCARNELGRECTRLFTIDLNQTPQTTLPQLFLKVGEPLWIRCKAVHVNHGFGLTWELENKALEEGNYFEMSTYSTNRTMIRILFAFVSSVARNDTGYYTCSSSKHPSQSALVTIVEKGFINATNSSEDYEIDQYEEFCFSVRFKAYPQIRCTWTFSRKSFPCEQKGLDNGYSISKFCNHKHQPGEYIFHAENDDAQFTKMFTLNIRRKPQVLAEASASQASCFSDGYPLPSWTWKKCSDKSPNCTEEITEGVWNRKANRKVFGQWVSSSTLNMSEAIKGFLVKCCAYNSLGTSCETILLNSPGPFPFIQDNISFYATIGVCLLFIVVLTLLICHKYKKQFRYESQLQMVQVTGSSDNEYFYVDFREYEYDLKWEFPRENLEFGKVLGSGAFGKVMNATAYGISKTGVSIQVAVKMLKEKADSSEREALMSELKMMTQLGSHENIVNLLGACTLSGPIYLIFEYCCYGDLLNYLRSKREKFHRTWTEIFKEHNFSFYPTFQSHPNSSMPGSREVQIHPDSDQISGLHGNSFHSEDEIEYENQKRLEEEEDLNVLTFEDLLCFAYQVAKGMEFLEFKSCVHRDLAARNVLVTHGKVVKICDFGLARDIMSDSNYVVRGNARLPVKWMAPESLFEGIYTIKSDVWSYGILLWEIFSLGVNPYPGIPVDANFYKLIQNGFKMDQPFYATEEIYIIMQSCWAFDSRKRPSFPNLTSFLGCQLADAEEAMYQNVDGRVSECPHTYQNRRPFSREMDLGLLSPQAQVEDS
# test: Measurement of FLT3 enzyme activity
# Type: biochemical
# condition-set: FLT3 enzyme activity; read-out: FLT3 (IC50)

Guide cases for IC50, answers given:
Cc1oncc1C(=O)Nc1ccc2[nH]c(-c3cc(-n4ccnc4C)cc(C(F)(F)F)c3)nc2c1: > 10 µM
Cc1oncc1C(=O)Nc1ccc2[nH]c(-c3cc(F)cc(C(F)(F)F)c3)nc2c1: > 10 µM
Cc1oncc1C(=O)Nc1ccc2[nH]c(-c3ccc(Cl)cc3)nc2c1: 3 to 10 µM

Here's the next entry for you.
What measured IC50 is associated with `Cc1oncc1C(=O)Nc1ccc2[nH]c(-c3cc(N4CCOCC4)cc(C(F)(F)F)c3)nc2c1` on FLT3 (Homo sapiens (Human))?
3 to 10 µM
